Target Entity: murine CCR2 (Mus musculus, UniProt P51683)
Construct: host or cells: U2OS β-arrestin cell line
Sequence (P51683 whole entry): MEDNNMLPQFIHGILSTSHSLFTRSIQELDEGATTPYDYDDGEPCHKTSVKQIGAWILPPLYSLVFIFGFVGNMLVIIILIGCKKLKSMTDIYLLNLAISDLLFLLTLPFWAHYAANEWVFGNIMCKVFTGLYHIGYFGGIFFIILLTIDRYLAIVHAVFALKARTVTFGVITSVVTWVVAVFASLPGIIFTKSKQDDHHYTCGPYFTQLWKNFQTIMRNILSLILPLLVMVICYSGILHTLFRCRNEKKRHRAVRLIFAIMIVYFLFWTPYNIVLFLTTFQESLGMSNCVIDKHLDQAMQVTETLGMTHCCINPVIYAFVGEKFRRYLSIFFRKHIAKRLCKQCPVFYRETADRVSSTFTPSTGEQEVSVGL
Assay Name: Functional β-arrestin recruiting test with murine MCP-1 (B-2b)
Assay type: cell-based
Setup Conditions: U2OS β-arrestin cell line transfected with murine CCR2; agonist murine MCP-1; in some cases means of several determinations
Define the label as Fulfilled when IC50 is strictly less than 200 nM and as Not fulfilled in all remaining cases.

Some solved cases for reference:
Item Smiles: COc1csnc1-c1nc(C(F)(F)F)c(Oc2ccc(Cl)c(Cl)c2)c(=O)[nH]1
Classification: Fulfilled
//
Item Smiles: Cc1ccc(-c2nc(C(F)(F)F)c(Oc3ccc(Cl)c(Cl)c3)c(=O)[nH]2)nc1
Classification: Not fulfilled
//
Item Smiles: COc1cc(C)nc(-c2nc(C(F)(F)F)c(Oc3ccc(Cl)c(Cl)c3)c(=O)[nH]2)n1
Classification: Fulfilled
//
Item Smiles: O=c1[nH]c(-c2n[nH]cc2Cl)nc(C(F)(F)F)c1Cc1ccc(Cl)c(C(F)(F)F)c1
Classification: Fulfilled
//
Item Smiles: O=c1[nH]c(-c2n[nH]cc2Cl)nc(C(F)(F)F)c1Oc1ccc(Cl)c(C(F)(F)F)c1
Classification: Fulfilled
//
Item Smiles: Nc1cnn(-c2nc(C(F)(F)F)c(Oc3ccc(Cl)c(Cl)c3)c(=O)[nH]2)c1
Classification: Fulfilled

Then this compound:
# check: IC50 < 200 nM for O=c1[nH]c(C2CCNCC2)nc(C(F)(F)F)c1Oc1ccc(Cl)c(C(F)(F)F)c1 Not fulfilled
